molecular target: GSTO1 (Homo sapiens, UniProt P78417); assay: In-gel fluorescence competitive CMFDA binding assay, recombinant GSTO1; conditions: inhibition of CMFDA binding
Sequence (P78417 whole entry): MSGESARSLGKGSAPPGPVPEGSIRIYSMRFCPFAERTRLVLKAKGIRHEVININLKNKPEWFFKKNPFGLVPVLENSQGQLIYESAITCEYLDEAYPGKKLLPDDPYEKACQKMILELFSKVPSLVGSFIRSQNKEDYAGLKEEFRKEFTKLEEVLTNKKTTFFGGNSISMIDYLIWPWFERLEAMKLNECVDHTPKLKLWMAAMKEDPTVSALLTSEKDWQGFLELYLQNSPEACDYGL
measured.quantity: GSTO binding assay (% Inhibition at 10 µM) Recombinant (%)
Express it in %; write the number only.

Fill in the blank: the reported GSTO binding assay (% Inhibition at 10 µM) Recombinant of CN(CCOc1ccc(Cl)cc1)C(=O)CCl is ____.
66.7

Endpoint output: GSTO binding assay (% Inhibition at 10 µM) Recombinant of O=C(CCl)N1CCN(S(=O)(=O)c2ccc(F)c(F)c2)CC1 . Value?
61.2

Could you share which GSTO binding assay (% Inhibition at 10 µM) Recombinant value was measured for O=C(CCl)Nc1ccnn1Cc1cccc(Cl)c1 ?
56.0

Looking for the measured GSTO binding assay (% Inhibition at 10 µM) Recombinant of O=C(CCl)NCC(=O)Nc1ccc(F)c(F)c1 , can you help?
36.2

Fill in the blank: the reported GSTO binding assay (% Inhibition at 10 µM) Recombinant of Cc1ccc(-c2oc(NC(=O)CCl)c(C#N)c2-c2ccc(C)cc2)cc1 is ____.
59.5

I have this molecule here, CCOC(=O)c1c(NC(=O)CCl)sc(Cc2ccc3c(c2)OCO3)c1C , and I need its recorded GSTO binding assay (% Inhibition at 10 µM) Recombinant.
48.1

---

molecular target: endogenous GSTO1 (Homo sapiens, UniProt P78417); assay: In-gel fluorescence competitive CMFDA binding assay, endogenous GSTO1 in HCT116; details: 10 µM; inhibition of CMFDA binding, HCT116
Sequence (P78417 whole entry): as above
measured.quantity: GSTO binding assay (% Inhibition at 10 µM) Endogenous (%)
Quick reminder: number only, in %, skip the unit.

Using the record for COCCN(C(=O)CCl)c1c(N)n(Cc2ccccc2)c(=O)[nH]c1=O , report its GSTO binding assay (% Inhibition at 10 µM) Endogenous.
18.7

Param item = CCN(c1ccc(NC(=O)CCl)cc1)C(C)C ; retrieve measured GSTO binding assay (% Inhibition at 10 µM) Endogenous.
78.6

What value of GSTO binding assay (% Inhibition at 10 µM) Endogenous has been recorded for this entry: CCN(CC(=O)NC1CCS(=O)(=O)C1)C(=O)CCl (stereo not shown)
7.3

Return reported GSTO binding assay (% Inhibition at 10 µM) Endogenous; argument: O=C(CCl)NCc1ccccc1CN1CCOCC1
7.3

GET /values?readout=GSTO binding assay (% Inhibition at 10 µM) Endogenous&item= N#Cc1cnn(-c2ccccc2)c1NC(=O)CCl
25.2

For the compound CCN(CC)S(=O)(=O)c1ccc(CNC(=O)CCl)cc1 , what GSTO binding assay (% Inhibition at 10 µM) Endogenous is on record?
63.6

For Cc1ccc(C)c(S(=O)(=O)N2CCN(C(=O)CCl)CC2)c1 , what is its reported GSTO binding assay (% Inhibition at 10 µM) Endogenous?
47.1

Sample O=C(CCl)NCC1COc2ccccc2O1 (stereo not shown) — what was its GSTO binding assay (% Inhibition at 10 µM) Endogenous?
53.9

# lookup: GSTO binding assay (% Inhibition at 10 µM) Endogenous of COc1ccc(-c2csc(NC(=O)CCl)n2)c(O)c1
62.1

What value of measured GSTO binding assay (% Inhibition at 10 µM) Endogenous is listed for O=C(CCl)Nc1ccccc1N1CCOCC1 ?
58.2

Fill blank: measured GSTO binding assay (% Inhibition at 10 µM) Endogenous of the compound O=C(CCl)Nc1cc(C(F)(F)F)ccc1N1CCCC1 is ____.
-9.5

Name the reported GSTO binding assay (% Inhibition at 10 µM) Endogenous value associated with the compound O=C(CCl)N1CCN(Cc2ccc(Br)s2)CC1
55.8

Name the reported GSTO binding assay (% Inhibition at 10 µM) Endogenous value associated with the compound Cc1c(C#N)c(NC(=O)CCl)n(-c2ccc(F)cc2)c1C
47.0

Look up GSTO binding assay (% Inhibition at 10 µM) Endogenous: CCOc1ccc(NC(=O)CCl)cc1S(=O)(=O)N1CCCCC1
80.8

Quick one: GSTO binding assay (% Inhibition at 10 µM) Endogenous of O=C(CCl)N1N=C(c2cccs2)CC1c1ccco1 (stereo not shown) ?
22.7

Name the reported GSTO binding assay (% Inhibition at 10 µM) Endogenous value associated with the compound Cc1nn(Cc2ccccc2)c(C)c1CNC(=O)CCl
14.5

I'd like to know its GSTO binding assay (% Inhibition at 10 µM) Endogenous. The compound in question is O=C(CCl)Nc1sc2c(c1C(=O)c1ccccc1)CCCC2
39.6

Which GSTO binding assay (% Inhibition at 10 µM) Endogenous reading was recorded for the compound O=C(CCl)NNc1c(Cl)cc(Cl)cc1Cl ?
39.3

Value lookup for GSTO binding assay (% Inhibition at 10 µM) Endogenous; key = CN(CC(=O)Nc1c(Cl)cccc1Cl)C(=O)CCl
53.0

Reported GSTO binding assay (% Inhibition at 10 µM) Endogenous for COc1ccc(C2=NN(C(=O)CCl)C(c3cccc(OC)c3OC)C2)cc1 (stereo not shown) : what is it?
28.9

What value of GSTO binding assay (% Inhibition at 10 µM) Endogenous has been reported for the following compound? O=C(CCl)N1CCN(c2ccc(O)cc2)CC1
33.4

Fill in: GSTO binding assay (% Inhibition at 10 µM) Endogenous of C=CCN(C(=O)CCl)c1nc(-c2ccc(Cl)c(Cl)c2)cs1 is ___
15.9

Item under review: Cc1cccc2sc(N(Cc3ccccc3)C(=O)CCl)nc12 . Reported GSTO binding assay (% Inhibition at 10 µM) Endogenous?
30.0

If you can, please state the reported GSTO binding assay (% Inhibition at 10 µM) Endogenous value of CCOc1cc2c(cc1CNC(=O)CCl)OC(C)C2 (stereo not shown) .
31.8

Return reported GSTO binding assay (% Inhibition at 10 µM) Endogenous; argument: CN(C)C(CNC(=O)CCl)c1ccccc1 (stereo not shown)
9.7

Given the compound Cc1cccc(C(O)(C(=O)NN(C(=O)CCl)C2CCCCC2)c2cccc(C)c2)c1 , what is its reported GSTO binding assay (% Inhibition at 10 µM) Endogenous?
20.6

Consider the compound shown here: CN(CCCNC(=O)CCl)c1ccccc1 What is its recorded GSTO binding assay (% Inhibition at 10 µM) Endogenous?
45.4

Bench note: what GSTO binding assay (% Inhibition at 10 µM) Endogenous did Cc1c(NC(=O)c2c(NC(=O)CCl)sc3c2CCCC3)c(=O)n(-c2ccccc2)n1C show?
58.6

So what does the record say about GSTO binding assay (% Inhibition at 10 µM) Endogenous for O=C(CCl)NC1CCN(Cc2ccccc2)CC1 ?
66.7

Query (compound): COc1ccc(S(=O)(=O)N2CCCCCC2)cc1NC(=O)CCl ; field requested: GSTO binding assay (% Inhibition at 10 µM) Endogenous
77.0

Could you tell me which GSTO binding assay (% Inhibition at 10 µM) Endogenous is on file for CC(C)C(NC(=O)CCl)c1ccc2c(c1)OCCO2 (stereo not shown) ?
33.4

Please report the recorded GSTO binding assay (% Inhibition at 10 µM) Endogenous for O=C(CCl)NC(=O)c1cccc2ccccc12 .
37.5

Could you tell me which GSTO binding assay (% Inhibition at 10 µM) Endogenous is on file for CCOC(=O)c1c(NC(=O)CCl)sc(Cc2ccc3c(c2)OCO3)c1C ?
41.3

Consider the compound shown here: O=C(CCl)NNC(=O)c1cc2c(s1)CCCC2 What is its recorded GSTO binding assay (% Inhibition at 10 µM) Endogenous?
-11.7
